Source of measurements: patent US20250115603A1

- PROTOCOL DESCRIPTION: Solubility measurement at 50° C. (HPLC of saturated solution)
- Assay type: physicochemical
- ASSAY CONDITIONS: Ethyl formate, 50 °C, organic solvent or mixture
Where a name gives a salt, the structure may show the parent alone.
OBSERVABLE: solubility

For Cc1nc2c(F)c(-c3cccc(Cl)c3Cl)c(CCC#N)cc2c2c1cc(C1CC3C[C@H]3N1C(=O)C1CC1)n2C1[C@H]2CN[C@@H]1C2 (atropisomer, axis not shown; (Ra)) [Compound 1 HCl, monohydrochloride dihydrate] , what is its reported solubility?
< 1000 µg/mL

====

- PROTOCOL DESCRIPTION: Solubility measurement at 25° C. (HPLC of saturated solution)
- Assay type: physicochemical
- ASSAY CONDITIONS: DMSO, 25 °C, organic solvent or mixture; by visual assessment
Counter-ions that a name gives are not always drawn.
OBSERVABLE: solubility

Form field: reported solubility of Cc1nc2c(F)c(-c3cccc(Cl)c3Cl)c(CCC#N)cc2c2c1cc(C1CC3C[C@H]3N1C(=O)C1CC1)n2C1[C@H]2CN[C@@H]1C2 (atropisomer, axis not shown; (Ra)) [Compound 1 HCl, monohydrochloride dihydrate]
> 50 mg/mL
